Source of measurements: the supplement of paper PMC8728848

# Measured Target: Neu5Ac(a2-3)Gal(b1-4)GlcNAc(b1-3)Gal(b1-4)GlcNAc
# Experiment Notes: glycan array binding signal (z-score within array); higher = stronger binding
# Measurement Parameters: glycan notation: IUPAC condensed, linker removed
The full list was thinned out, with the strongest signals kept by preference.
Assay Metric: glycan array binding signal (z-score)
Respond with the number and no other words.

Recorded results for 4 binders are shown here.
Binder: MGL (Homo sapiens), Q8IUN9 (protein) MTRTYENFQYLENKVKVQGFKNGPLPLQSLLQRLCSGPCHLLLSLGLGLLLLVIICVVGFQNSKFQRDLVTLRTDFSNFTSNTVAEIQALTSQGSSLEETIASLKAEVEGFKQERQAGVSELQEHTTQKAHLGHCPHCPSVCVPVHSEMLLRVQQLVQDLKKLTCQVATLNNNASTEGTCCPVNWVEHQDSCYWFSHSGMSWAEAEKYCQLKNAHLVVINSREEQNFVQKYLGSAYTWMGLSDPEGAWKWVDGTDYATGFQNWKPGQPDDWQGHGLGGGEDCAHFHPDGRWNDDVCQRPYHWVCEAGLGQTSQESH
Assay Metric: glycan array binding signal (z-score)
Reading: -0.238
//
Binder: PpFlo2 (Pichia pastoris) (protein) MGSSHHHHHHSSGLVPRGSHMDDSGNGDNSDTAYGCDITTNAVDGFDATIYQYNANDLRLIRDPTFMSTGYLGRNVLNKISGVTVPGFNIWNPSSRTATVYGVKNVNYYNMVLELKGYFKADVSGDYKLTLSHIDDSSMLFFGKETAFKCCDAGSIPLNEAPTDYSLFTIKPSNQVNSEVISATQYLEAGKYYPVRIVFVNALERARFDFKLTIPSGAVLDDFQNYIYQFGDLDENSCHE
Assay Metric: glycan array binding signal (z-score)
Reading: -0.293
//
Binder: Cohesin-mDCIR (Macaca mulatta) (protein) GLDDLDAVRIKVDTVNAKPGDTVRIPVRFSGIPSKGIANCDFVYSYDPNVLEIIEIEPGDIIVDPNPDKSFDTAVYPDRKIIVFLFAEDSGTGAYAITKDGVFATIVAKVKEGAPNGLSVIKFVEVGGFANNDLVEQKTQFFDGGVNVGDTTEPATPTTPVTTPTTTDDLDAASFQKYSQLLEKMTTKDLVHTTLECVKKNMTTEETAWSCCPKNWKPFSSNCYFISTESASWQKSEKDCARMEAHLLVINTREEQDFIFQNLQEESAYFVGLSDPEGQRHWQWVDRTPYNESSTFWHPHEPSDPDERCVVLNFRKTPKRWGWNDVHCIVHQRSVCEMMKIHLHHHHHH
Assay Metric: glycan array binding signal (z-score)
Reading: -0.175
//
Binder: chitinase 3-like protein 2 (Homo sapiens) (protein) YKLVCYFTQWSQDRQEPGKFTPENIDPFLCSHLIYSFASIENNKVIIKDKSEVMLYQTINSLKTKNPKLKILLSIGGYLFGSKGFHPMVDSSTSRLEFINSIILFLRNHNFDGLDVSWIYPDQKENTHFTVLIHELAEAFQKDFTKSTKERLLLTAGVSAGRQMIDNSYQVEKLAKDLDFINLLSFDFHGSWEKPLITGHNSPLSKGWQDRGPSSYYNVEYAVGYWIHKGMPSEKVVMGIPTYGHSFTLASAETTVGAPASGPGAAGPITESSGFLAYYEICQFLKGAKITRLQDQQVPYAVKGNQWVGYDDVKSMETKVQFLKNLNLGGAMIWSIDMDDFTGKSCNQGPYPLVQAVKRSLGSL
Assay Metric: glycan array binding signal (z-score)
Reading: -0.269

We now examine a further binder.
**Q:** Which glycan array binding signal (z-score) value is on record for HMGB1 (Homo sapiens), P09429 (protein) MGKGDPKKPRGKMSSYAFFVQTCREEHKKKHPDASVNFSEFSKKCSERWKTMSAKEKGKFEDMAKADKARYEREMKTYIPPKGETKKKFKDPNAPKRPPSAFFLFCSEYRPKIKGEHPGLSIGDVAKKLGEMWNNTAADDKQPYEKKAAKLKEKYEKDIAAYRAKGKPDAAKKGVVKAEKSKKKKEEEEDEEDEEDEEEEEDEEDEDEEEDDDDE ?
**A:** 0.045
